# Test system: Escherichia coli TOP10
# experiment.notes: shrunken log2 fold change of peptide-encoding DNA abundance (4.5 h post-induction vs induction); higher = less antimicrobial activity (less host growth inhibition)
# condition.parameters: time post-induction: 4.5 h; library: site-saturation at positions 5, 18, 19, 20
Listing: shrunken log2 fold change of selected sequences
measured.attribute: shrunken log2 fold change

{"chain": "RRIRMRPPRLPRPRPRPFQFPRP", "value.observed": -0.0349}
{"chain": "RRIRVRPPRLPRPRPRPRNMPRP", "value.observed": -0.318}
{"chain": "RRIRKRPPRLPRPRPRPMSEPRP", "value.observed": 0.148}
{"chain": "RRIRCRPPRLPRPRPRPMRNPRP", "value.observed": 0.185}
{"chain": "RRIRPRPPRLPRPRPRPPYRPRP", "value.observed": 0.103}
{"chain": "RRIRNRPPRLPRPRPRPDAEPRP", "value.observed": 0.45}
{"chain": "RRIRTRPPRLPRPRPRPTDAPRP", "value.observed": 0.471}
{"chain": "RRIRNRPPRLPRPRPRPCNYPRP", "value.observed": -0.164}

* * *

Listing: shrunken log2 fold change of selected sequences
# Tested on: Escherichia coli TOP10
# experiment.notes: shrunken log2 fold change of peptide-encoding DNA abundance (4.5 h post-induction vs induction); higher = less antimicrobial activity (less host growth inhibition)
# condition.parameters: time post-induction: 4.5 h; library: site-saturation at positions 5, 18, 19, 20

{"chain": "RRIRGRPPRLPRPRPRPTTVPRP", "assay.system": "Escherichia coli TOP10", "shrunken log2 fold change": 0.368}
{"chain": "RRIRKRPPRLPRPRPRPNQAPRP", "assay.system": "Escherichia coli TOP10", "shrunken log2 fold change": -0.171}
{"chain": "RRIRSRPPRLPRPRPRPDELPRP", "assay.system": "Escherichia coli TOP10", "shrunken log2 fold change": -0.0328}
{"chain": "RRIRWRPPRLPRPRPRPKKVPRP", "assay.system": "Escherichia coli TOP10", "shrunken log2 fold change": 0.0465}
{"chain": "RRIRWRPPRLPRPRPRPKCTPRP", "assay.system": "Escherichia coli TOP10", "shrunken log2 fold change": 1.21}
{"chain": "RRIRRRPPRLPRPRPRPWFMPRP", "assay.system": "Escherichia coli TOP10", "shrunken log2 fold change": -0.125}
{"chain": "RRIRERPPRLPRPRPRPHNNPRP", "assay.system": "Escherichia coli TOP10", "shrunken log2 fold change": 0.486}
{"chain": "RRIRYRPPRLPRPRPRPWFYPRP", "assay.system": "Escherichia coli TOP10", "shrunken log2 fold change": -1.48}
{"chain": "RRIRHRPPRLPRPRPRPEFKPRP", "assay.system": "Escherichia coli TOP10", "shrunken log2 fold change": 0.0348}
{"chain": "RRIRWRPPRLPRPRPRPMTGPRP", "assay.system": "Escherichia coli TOP10", "shrunken log2 fold change": 0.019}
{"chain": "RRIRQRPPRLPRPRPRPWYFPRP", "assay.system": "Escherichia coli TOP10", "shrunken log2 fold change": -0.289}
{"chain": "RRIRYRPPRLPRPRPRPPKRPRP", "assay.system": "Escherichia coli TOP10", "shrunken log2 fold change": -0.121}
{"chain": "RRIRWRPPRLPRPRPRPAGQPRP", "assay.system": "Escherichia coli TOP10", "shrunken log2 fold change": 0.218}
{"chain": "RRIRLRPPRLPRPRPRPLTYPRP", "assay.system": "Escherichia coli TOP10", "shrunken log2 fold change": -0.448}
{"chain": "RRIRNRPPRLPRPRPRPSTQPRP", "assay.system": "Escherichia coli TOP10", "shrunken log2 fold change": -0.502}

* * *

# Test system: Escherichia coli TOP10
# experiment.notes: shrunken log2 fold change of peptide-encoding DNA abundance (4.5 h post-induction vs induction); higher = less antimicrobial activity (less host growth inhibition)
# condition.parameters: time post-induction: 4.5 h; library: site-saturation at positions 5, 18, 19, 20
Listing: shrunken log2 fold change of selected sequences

{"chain": "RRIRKRPPRLPRPRPRPGHTPRP", "shrunken log2 fold change": 0.272}
{"chain": "RRIRRRPPRLPRPRPRPQPRPRP", "shrunken log2 fold change": 0.5}
{"chain": "RRIRKRPPRLPRPRPRPQWFPRP", "shrunken log2 fold change": -0.185}
{"chain": "RRIRPRPPRLPRPRPRPMMYPRP", "shrunken log2 fold change": -0.198}
{"chain": "RRIRRRPPRLPRPRPRPFLGPRP", "shrunken log2 fold change": 0.187}
{"chain": "RRIRRRPPRLPRPRPRPNTWPRP", "shrunken log2 fold change": 0.0852}
{"chain": "RRIRIRPPRLPRPRPRPSVEPRP", "shrunken log2 fold change": -0.947}
{"chain": "RRIRLRPPRLPRPRPRPDLLPRP", "shrunken log2 fold change": -0.0261}
{"chain": "RRIRNRPPRLPRPRPRPTDQPRP", "shrunken log2 fold change": 0.362}
{"chain": "RRIRNRPPRLPRPRPRPALIPRP", "shrunken log2 fold change": 0.0102}
{"chain": "RRIRSRPPRLPRPRPRPADDPRP", "shrunken log2 fold change": 0.479}
{"chain": "RRIRDRPPRLPRPRPRPEDQPRP", "shrunken log2 fold change": 0.0219}
{"chain": "RRIRARPPRLPRPRPRPTMDPRP", "shrunken log2 fold change": -0.037}
{"chain": "RRIRTRPPRLPRPRPRPYQRPRP", "shrunken log2 fold change": -0.0311}
{"chain": "RRIRMRPPRLPRPRPRPSNVPRP", "shrunken log2 fold change": -0.259}
{"chain": "RRIRFRPPRLPRPRPRPPHCPRP", "shrunken log2 fold change": 0.362}
{"chain": "RRIRYRPPRLPRPRPRPLHMPRP", "shrunken log2 fold change": -0.116}
{"chain": "RRIRFRPPRLPRPRPRPYLAPRP", "shrunken log2 fold change": -0.425}
{"chain": "RRIRYRPPRLPRPRPRPGHVPRP", "shrunken log2 fold change": -0.59}
{"chain": "RRIRGRPPRLPRPRPRPCEFPRP", "shrunken log2 fold change": 0.0669}
{"chain": "RRIRERPPRLPRPRPRPKMYPRP", "shrunken log2 fold change": -0.898}
{"chain": "RRIRPRPPRLPRPRPRPWVYPRP", "shrunken log2 fold change": -0.227}
{"chain": "RRIRDRPPRLPRPRPRPAWAPRP", "shrunken log2 fold change": 0.713}
{"chain": "RRIRPRPPRLPRPRPRPTNKPRP", "shrunken log2 fold change": -0.208}
{"chain": "RRIRIRPPRLPRPRPRPQLIPRP", "shrunken log2 fold change": -0.146}
{"chain": "RRIRCRPPRLPRPRPRPPNCPRP", "shrunken log2 fold change": 0.0348}
{"chain": "RRIRKRPPRLPRPRPRPKPKPRP", "shrunken log2 fold change": 0.464}
{"chain": "RRIRTRPPRLPRPRPRPSDAPRP", "shrunken log2 fold change": -0.174}
{"chain": "RRIRDRPPRLPRPRPRPISLPRP", "shrunken log2 fold change": -0.0081}
{"chain": "RRIRFRPPRLPRPRPRPLKLPRP", "shrunken log2 fold change": -0.147}
{"chain": "RRIRTRPPRLPRPRPRPEESPRP", "shrunken log2 fold change": -0.0116}
{"chain": "RRIRHRPPRLPRPRPRPDSHPRP", "shrunken log2 fold change": -0.0191}

* * *

# System: Escherichia coli TOP10;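 note: peptides expressed intracellularly from a pBAD plasmid library in pooled LB shake-flask culture, induced with 0.3% L-arabinose, DNA abundance read by NGS, three biological replicates, DESeq2 with apeglm shrinkage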
# experiment.notes: shrunken log2 fold change of peptide-encoding DNA abundance (4.5 h post-induction vs induction); higher = less antimicrobial activity (less host growth inhibition)
# condition.parameters: time post-induction: 4.5 h; library: site-saturation at positions 5, 18, 19, 20

{"chain": "RRIRCRPPRLPRPRPRPDMMPRP", "shrunken log2 fold change": 0.00614}
{"chain": "RRIRARPPRLPRPRPRPMMSPRP", "shrunken log2 fold change": 0.186}
{"chain": "RRIRYRPPRLPRPRPRPAAKPRP", "shrunken log2 fold change": 0.152}
{"chain": "RRIRVRPPRLPRPRPRPEIDPRP", "shrunken log2 fold change": 0.135}
{"chain": "RRIRERPPRLPRPRPRPDIYPRP", "shrunken log2 fold change": 0.137}
{"chain": "RRIRIRPPRLPRPRPRPGRSPRP", "shrunken log2 fold change": 0.0764}
{"chain": "RRIRARPPRLPRPRPRPDWWPRP", "shrunken log2 fold change": 0.608}
{"chain": "RRIRFRPPRLPRPRPRPACEPRP", "shrunken log2 fold change": -0.0985}
{"chain": "RRIRNRPPRLPRPRPRPMVVPRP", "shrunken log2 fold change": 0.00587}
{"chain": "RRIRVRPPRLPRPRPRPHMGPRP", "shrunken log2 fold change": -0.302}
{"chain": "RRIRTRPPRLPRPRPRPPYMPRP", "shrunken log2 fold change": -0.302}
{"chain": "RRIRKRPPRLPRPRPRPIGHPRP", "shrunken log2 fold change": 0.0336}
{"chain": "RRIRYRPPRLPRPRPRPCPPPRP", "shrunken log2 fold change": -0.839}
{"chain": "RRIRERPPRLPRPRPRPFHDPRP", "shrunken log2 fold change": -0.291}
{"chain": "RRIRMRPPRLPRPRPRPLQLPRP", "shrunken log2 fold change": 0.102}
